Biological target: T1, human TSH receptor (full length), coated on tubes (human, UniProt P16473 22-764)
T1 construct: TSHR coated tubes as described in WO2004/050708A2; Exact preparation on the tubes is not detailed here; also called thyroid stimulating hormone receptor
Assay: competition with 125I-K1-18 IgG on TSHR coated tubes; 0.1 µg/mL, diluted in assay buffer
property label: Inhibition of binding (%)
Put your answer as a value accompanied by its unit after it.

Recorded result, K1-18 Fab (Fab, V domains shown) VH: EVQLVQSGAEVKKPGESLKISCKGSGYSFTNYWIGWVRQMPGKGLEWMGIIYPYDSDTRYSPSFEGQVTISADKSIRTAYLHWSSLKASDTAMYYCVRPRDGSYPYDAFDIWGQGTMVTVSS VL: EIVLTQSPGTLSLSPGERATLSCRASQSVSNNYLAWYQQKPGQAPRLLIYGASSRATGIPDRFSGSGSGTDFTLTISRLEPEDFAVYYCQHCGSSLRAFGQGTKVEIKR , Inhibition of binding (%): 56.7%

Recorded result, K1-18 IgG (antibody, V domains shown) VH: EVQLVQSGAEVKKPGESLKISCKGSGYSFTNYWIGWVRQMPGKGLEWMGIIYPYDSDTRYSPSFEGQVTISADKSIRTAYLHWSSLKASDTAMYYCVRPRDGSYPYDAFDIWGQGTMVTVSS VL: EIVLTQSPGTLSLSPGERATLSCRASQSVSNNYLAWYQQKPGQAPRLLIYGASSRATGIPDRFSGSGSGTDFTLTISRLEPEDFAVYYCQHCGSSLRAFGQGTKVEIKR , Inhibition of binding (%): 78.9%

Recorded result, K1-70 IgG (antibody, V domains shown) VH: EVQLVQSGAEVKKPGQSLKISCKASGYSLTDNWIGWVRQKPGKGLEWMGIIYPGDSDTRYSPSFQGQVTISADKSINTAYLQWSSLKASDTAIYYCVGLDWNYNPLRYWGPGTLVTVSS VL: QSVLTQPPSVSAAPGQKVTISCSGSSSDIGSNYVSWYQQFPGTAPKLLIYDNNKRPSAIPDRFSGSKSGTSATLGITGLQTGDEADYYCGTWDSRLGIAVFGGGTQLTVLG , Inhibition of binding (%): 89.2%

Recorded result, K1-70 Fab (Fab, V domains shown) VH: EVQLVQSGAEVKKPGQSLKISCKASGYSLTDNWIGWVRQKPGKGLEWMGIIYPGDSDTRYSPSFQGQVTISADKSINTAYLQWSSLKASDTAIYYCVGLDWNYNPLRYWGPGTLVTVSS VL: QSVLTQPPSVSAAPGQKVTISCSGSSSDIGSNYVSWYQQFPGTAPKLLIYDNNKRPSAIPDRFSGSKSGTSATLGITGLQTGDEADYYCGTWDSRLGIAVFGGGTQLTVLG , Inhibition of binding (%): 87.6%
